Origin of values: patent US20060069132A1

- Test system: ducksalad
- Method notes: Test C flooded paddy test
- Assay type: in vivo, Heteranthera limosa
- Experimental setup: 62 g ai/ha, scale 0 to 100 (0 no effect, 100 complete control)

>  <Smiles repr>
CC(=NO)c1cccc(NC(=O)c2cc(C(C)(C)C)nn2C)c1

>  <Ducksalad plant response rating>
20

$$$$
>  <Smiles repr>
CCc1cn(C(C)(C)C)nc1C(=O)Nc1cc(C(=O)N(C)CC)ccn1

>  <Ducksalad plant response rating>
0

$$$$
>  <Smiles repr>
CCn1nc(C(C)(C)C)cc1C(=O)Nc1cc(C#N)ccc1F

>  <Ducksalad plant response rating>
0

$$$$
>  <Smiles repr>
CCc1nn(C(C)(C)C)cc1C(=O)Nc1cccc(C(C)=NO)c1

>  <Ducksalad plant response rating>
20

$$$$
>  <Smiles repr>
CCNC(=O)c1ccnc(NC(=O)c2cc(C(C)(C)C)nn2CC)c1

>  <Ducksalad plant response rating>
85

$$$$
>  <Smiles repr>
C=CCN(C)C(=O)c1ccnc(NC(=O)c2cc(C(C)(C)C)nn2CC)c1

>  <Ducksalad plant response rating>
80

$$$$
>  <Smiles repr>
CCn1nc(C(C)(C)C)cc1C(=O)Nc1cccc(C#N)c1

>  <Ducksalad plant response rating>
0

$$$$

###

- Test system: ducksalad
- Method notes: Test C flooded paddy test
- Format: in vivo, Heteranthera limosa
- Experimental setup: 250 g ai/ha, scale of 0 to 100, 0 is no effect, 100 is complete control
- Excerpt: […]
If the reported Ducksalad plant response rating equals or exceeds 80, assign criterion met. If not, assign criterion not met.

>  <Smiles repr>
CCn1nc(C(C)(C)C)cc1C(=O)Nc1cccc(OC(F)(F)F)c1

>  <Label>
criterion not met

$$$$
>  <Smiles repr>
CCc1nn(C(C)(C)CC)nc1C(=O)Nc1cccc(C(=O)N(C)C)c1

>  <Label>
criterion met

$$$$
>  <Smiles repr>
CCNC(=S)c1ccc(F)c(NC(=O)c2cc(C(C)(C)C)nn2CC)c1

>  <Label>
criterion met

$$$$
>  <Smiles repr>
CCc1nc(C(C)(C)C)sc1C(=O)Nc1cc(C(=O)N(C)CC)ccc1F

>  <Label>
criterion not met

$$$$
>  <Smiles repr>
CCNC(=O)c1cccc(NC(=O)c2nn(C(C)(C)CC)nc2CC)c1

>  <Label>
criterion met

$$$$
>  <Smiles repr>
CCc1nn(C(C)(C)C)cc1C(=O)Nc1cc(C(=O)NC)ccc1F

>  <Label>
criterion not met

$$$$
>  <Smiles repr>
CCc1nn(C(C)(C)C)nc1C(=O)Nc1cc(C(=O)N(C)CC)ccc1F

>  <Label>
criterion not met

$$$$
>  <Smiles repr>
CCn1nc(C(C)(C)C)cc1C(=O)Nc1cccc(C#N)c1

>  <Label>
criterion met

$$$$

###

- System: barnyardgrass
- Method notes: Test A pre-/postemergence herbicide test
- Assay type: in vivo, Echinochloa crus-galli
- Experimental setup: preemergence, 500 g ai/ha; visual injury, 0 to 100 scale (0 no effect, 100 complete control)
// Barnyardgrass plant response rating lookup, one value per entry
Endpoint name: Barnyardgrass plant response rating

>  <Smiles repr>
CC(=O)c1cccc(NC(=O)c2cn(C(C)C)nc2C)c1

>  <Experimental result>
0

$$$$
>  <Smiles repr>
CCn1nc(C(C)(C)C)cc1C(=O)Nc1cccc(C(=O)N2CC=CC2)c1

>  <Experimental result>
75

$$$$
>  <Smiles repr>
C#CCNC(=O)c1cccc(NC(=O)c2cc(C(C)(C)C)nn2C)n1

>  <Experimental result>
0

$$$$
>  <Smiles repr>
CCn1nc(C(C)(C)C)cc1C(=O)Nc1cccc(OC(F)(F)F)c1

>  <Experimental result>
70

$$$$
>  <Smiles repr>
CCn1nc(C(C)(C)C)cc1C(=O)Nc1nc(C(=O)N(C)C)ccc1F

>  <Experimental result>
0

$$$$
>  <Smiles repr>
CCc1nc(C(C)(C)C)sc1C(=O)Nc1cccc(C(=O)NCC2CC2)n1

>  <Experimental result>
15

$$$$
>  <Smiles repr>
Cc1nc(C(C)(C)C)sc1C(=O)Nc1cccc(C(=O)NCCF)c1

>  <Experimental result>
35

$$$$

###

- System: giant foxtail
- Method notes: Test B pre-/postemergence herbicide test
- Assay type: in vivo, Setaria faberi
- Experimental setup: 125 g ai/ha; visual rating, scale 0 (no effect) to 100 (complete control); postemergence
// Foxtail, Giant plant response rating lookup, one value per entry
Endpoint name: Foxtail, Giant plant response rating

>  <Smiles repr>
CCNC(=O)c1cccc(NC(=O)c2nn(C(C)C)nc2C)c1

>  <System name>
giant foxtail

>  <Endpoint name>
Foxtail, Giant plant response rating

>  <Experimental result>
0

$$$$
>  <Smiles repr>
CCn1nc(C(C)(C)C)cc1C(=O)Nc1cncc(C(=O)N(C)C)n1

>  <System name>
giant foxtail

>  <Endpoint name>
Foxtail, Giant plant response rating

>  <Experimental result>
20

$$$$
>  <Smiles repr>
CCc1nn(C(C)(C)C)nc1C(=O)Nc1cc(C(=O)N(C)CC)ccc1F

>  <System name>
giant foxtail

>  <Endpoint name>
Foxtail, Giant plant response rating

>  <Experimental result>
10

$$$$
>  <Smiles repr>
C#CCNC(=O)c1cccc(NC(=O)c2nn(C(C)C)nc2CC)c1

>  <System name>
giant foxtail

>  <Endpoint name>
Foxtail, Giant plant response rating

>  <Experimental result>
10

$$$$
>  <Smiles repr>
CCc1nn(C(C)(C)CC)nc1C(=O)Nc1cccc(C(=O)N(C)C)c1

>  <System name>
giant foxtail

>  <Endpoint name>
Foxtail, Giant plant response rating

>  <Experimental result>
30

$$$$
>  <Smiles repr>
C#CCNC(=O)c1ccc(F)c(NC(=O)c2cc(C3(C)CC3)nn2CC)c1

>  <System name>
giant foxtail

>  <Endpoint name>
Foxtail, Giant plant response rating

>  <Experimental result>
0

$$$$

###

- Test system: blackgrass
- Method notes: Test B postemergence herbicide test
- Format: in vivo, Alopecurus myosuroides
- Experimental setup: Postemergence, 500 g ai/ha; visual rating after 13 to 15 days, scale 0 (no effect) to 100 (complete control)
Endpoint name: Plant response rating, Blackgrass

>  <Molecule>
CCCCn1nc(C(C)(C)C)cc1C(=O)Nc1cccc(C(=O)N(CC)CC)c1 [Compound 40]

>  <Experimental result>
20

$$$$
>  <Molecule>
COc1ccc(C(C)=NO)cc1NC(=O)c1cc(C(C)(C)C)nn1C [Compound 104]

>  <Experimental result>
0

$$$$
>  <Molecule>
CCOC(=O)c1cccc(NC(=O)c2cc(C(C)(C)C)nn2CCF)c1 [Compound 79]

>  <Experimental result>
30

$$$$
>  <Molecule>
C=CCOC(=O)c1cccc(NC(=O)c2cc(C(C)(C)C)nn2CC)c1 [Compound 85]

>  <Experimental result>
20

$$$$
>  <Molecule>
C=CCOC(=O)c1cccc(NC(=O)c2cc(C(C)(C)C)nn2CC)c1C [Compound 94]

>  <Experimental result>
10

$$$$
>  <Molecule>
C#CCOC(=O)c1cccc(NC(=O)c2cc(C(C)(C)C)nn2CC)c1 [Compound 84]

>  <Experimental result>
10

$$$$
>  <Molecule>
CCC(=NO)c1cccc(NC(=O)c2cc(C(C)(C)C)nn2C)c1 [Compound 118]

>  <Experimental result>
10

$$$$
>  <Molecule>
CCn1nc(C(C)(C)C)cc1C(=O)Nc1cccc(C(=O)OC)c1C [Compound 87]

>  <Experimental result>
0

$$$$
>  <Molecule>
CCn1nc(C(C)(C)C)cc1C(=O)Nc1ccc(C)c(C(=O)OC(C)C)c1 [Compound 100]

>  <Experimental result>
30

$$$$

###

// Rice plant response rating lookup, one value per entry
- Tested on: rice
- Method notes: Test B flooded paddy test
- Type: in vivo, Oryza sativa
- Experimental setup: 1000 g ai/ha, visual rating, scale 0 to 100 (0 no effect, 100 complete control), 13 to 15 days

>  <Smiles repr>
CCNC(=O)c1ccnc(NC(=O)c2cc(C(C)(C)C)nn2CC)c1

>  <Rice plant response rating>
70

$$$$
>  <Smiles repr>
CC(=NO)c1cccc(NC(=O)c2cc(C(C)(C)C)nn2CC(F)(F)F)c1

>  <Rice plant response rating>
70

$$$$
>  <Smiles repr>
C=CCOC(=O)c1cccc(NC(=O)c2cc(C(C)(C)C)nn2CC)c1C

>  <Rice plant response rating>
10

$$$$
>  <Smiles repr>
CCNC(=O)c1cc(C)nc(NC(=O)c2cc(C(C)(C)C)nn2CC)c1

>  <Rice plant response rating>
50

$$$$
>  <Smiles repr>
CCN(CC)C(=O)c1cccc(NC(=O)c2cc(C(C)(C)C)nn2CC(F)(F)F)c1

>  <Rice plant response rating>
0

$$$$
>  <Smiles repr>
CCCCn1nc(C(C)(C)C)cc1C(=O)Nc1cccc(C(=O)N(CC)CC)c1

>  <Rice plant response rating>
0

$$$$
>  <Smiles repr>
CCCCn1nc(C(C)(C)C)cc1C(=O)Nc1cccc(C(=O)NCC)c1

>  <Rice plant response rating>
20

$$$$
>  <Smiles repr>
CCn1nc(C(C)(C)C)cc1C(=O)Nc1cccc(C(=O)OCC2CC2)c1C

>  <Rice plant response rating>
20

$$$$
>  <Smiles repr>
CCn1nc(C(C)(C)C)cc1C(=O)Nc1cccc(C(=O)NC2CC2)n1

>  <Rice plant response rating>
40

$$$$
>  <Smiles repr>
CCn1nc(C(C)(C)C)cc1C(=O)Nc1cc(C(=O)OC)c(OC)cc1F

>  <Rice plant response rating>
90

$$$$
>  <Smiles repr>
CCc1nc(C(C)(C)C)sc1C(=O)Nc1cccc(C(=O)NCC2CC2)n1

>  <Rice plant response rating>
30

$$$$
>  <Smiles repr>
CCNC(=O)c1cc(C)cc(NC(=O)c2cc(C(C)(C)C)nn2CC)n1

>  <Rice plant response rating>
40

$$$$
>  <Smiles repr>
CCn1nc(C(C)(C)C)cc1C(=O)Nc1cccc(C(C)=NO)c1

>  <Rice plant response rating>
70

$$$$
>  <Smiles repr>
Cc1nc(C(C)(C)C)sc1C(=O)Nc1cccc(C(=O)NCCF)c1

>  <Rice plant response rating>
0

$$$$
>  <Smiles repr>
C#CCN(C)C(=O)c1ccnc(NC(=O)c2cc(C(C)(C)C)nn2CC)c1

>  <Rice plant response rating>
90

$$$$
>  <Smiles repr>
C#CCNC(=O)c1cccc(NC(=O)c2sc(C(C)(C)C)nc2C)c1

>  <Rice plant response rating>
0

$$$$
>  <Smiles repr>
C=CCN(C)C(=O)c1cccc(NC(=O)c2cc(C(C)(C)C)nn2CC)n1

>  <Rice plant response rating>
60

$$$$
>  <Smiles repr>
CCn1nc(C(C)(C)C)cc1C(=O)Nc1nc(OC)cc(SCF)n1

>  <Rice plant response rating>
0

$$$$
>  <Smiles repr>
CCN(CC)C(=O)c1cccc(NC(=O)c2cn(C(C)(C)C)nc2C)c1

>  <Rice plant response rating>
0

$$$$
>  <Smiles repr>
C=CCN(C)C(=O)c1ccnc(NC(=O)c2cc(C(C)(C)C)nn2CC)c1

>  <Rice plant response rating>
60

$$$$
